- TARGET_ENTITY: Macrophage migration inhibitory factor (Plasmodium falciparum (isolate 3D7), UniProt Q8I5C5)
- Sequence (Q8I5C5 whole entry): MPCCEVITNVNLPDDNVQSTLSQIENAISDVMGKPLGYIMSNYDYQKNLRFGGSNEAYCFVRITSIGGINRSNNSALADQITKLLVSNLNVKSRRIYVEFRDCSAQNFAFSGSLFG
- ASSAY_EXPLANATION: Tautomerase Activity Assay
QUANTITY: IC50
Your reply should be a number followed by the unit it is expressed in.

Which IC50 is listed for COC(=O)C[C@H]1[C@]2(C)C3=C(C)[C@H](c4ccoc4)C[C@H]3O[C@@H]2[C@H](OC(C)=O)[C@@H]2[C@]1(C)C(=O)C=C[C@@]2(C)C(=O)OC ?
22.5 µM

Bench note: what IC50 did C/C=C(\C)C(=O)O[C@H]1C[C@@H](OC(C)=O)[C@@]2(C)CO[C@H]3[C@H]4O[C@@H]5C[C@@H](c6ccoc6)C(C)=C5[C@@]4(C)[C@H](CC(=O)OC)[C@]1(C)[C@@H]32 show?
89.5 µM

Tell me the measured IC50 of CC(=O)O[C@@H]1C[C@H]2C(C)(C)C(=O)C=C[C@]2(C)[C@H]2CC[C@@]3(C)[C@H](c4ccoc4)C(=O)[C@H]4O[C@]43[C@@]21C , please.
9.5 µM

Requested read-out: IC50. Entry: CC(=O)O[C@@H]1C[C@H]2C(C)(C)C(=O)C=C[C@]2(C)[C@H]2CC[C@]3(C)C(=CC(=O)[C@H]3c3ccoc3)[C@@]21C
45.6 µM

----------
What pIC50 was measured for each of the following?
- TARGET_ENTITY: Macrophage migration inhibitory factor-like protein (Plasmodium yoelii yoelii)
- Sequence (Q1HEA2 whole entry): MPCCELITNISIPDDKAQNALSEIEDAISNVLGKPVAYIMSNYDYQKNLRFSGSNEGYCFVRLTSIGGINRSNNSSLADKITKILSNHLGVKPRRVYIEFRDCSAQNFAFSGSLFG
// scale note: pIC50 = -log10(conc_M); give the bare number

Which measured pIC50 value corresponds to CC(=O)O[C@@H]1C[C@H]2C(C)(C)C(=O)C=C[C@]2(C)[C@H]2CC[C@]3(C)C(=CC(=O)[C@H]3c3ccoc3)[C@@]21C ?
4.37

# pIC50 lookup, item C/C=C(\C)C(=O)O[C@H]1C[C@@H](OC(C)=O)[C@@]2(C)CO[C@H]3[C@H]4O[C@@H]5C[C@@H](c6ccoc6)C(C)=C5[C@@]4(C)[C@H](CC(=O)OC)[C@]1(C)[C@@H]32
4.02

Suppose we examine the compound COC(=O)C[C@H]1[C@]2(C)C3=C(C)[C@H](c4ccoc4)C[C@H]3O[C@@H]2[C@H](OC(C)=O)[C@@H]2[C@]1(C)C(=O)C=C[C@@]2(C)C(=O)OC ; what pIC50 value has been reported?
4.65

Any idea what its pIC50 is? The compound is CC(=O)O[C@@H]1C[C@H]2C(C)(C)C(=O)C=C[C@]2(C)[C@H]2CC[C@@]3(C)[C@H](c4ccoc4)C(=O)[C@H]4O[C@]43[C@@]21C
5.01

----------
The following molecules have recorded IC50 on Macrophage migration inhibitory factor (Homo sapiens).
Sequence (P14174 whole entry): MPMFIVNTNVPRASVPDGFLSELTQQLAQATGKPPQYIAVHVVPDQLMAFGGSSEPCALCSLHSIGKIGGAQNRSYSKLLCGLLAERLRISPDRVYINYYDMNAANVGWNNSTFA
Write the value in µM as a bare number.

Quick one: IC50 of C/C=C(\C)C(=O)O[C@H]1C[C@@H](OC(C)=O)[C@@]2(C)CO[C@H]3[C@H]4O[C@@H]5C[C@@H](c6ccoc6)C(C)=C5[C@@]4(C)[C@H](CC(=O)OC)[C@]1(C)[C@@H]32 ?
85.3

What value of IC50 has been reported for the following molecule? CC(=O)O[C@@H]1C[C@H]2C(C)(C)C(=O)C=C[C@]2(C)[C@H]2CC[C@]3(C)C(=CC(=O)[C@H]3c3ccoc3)[C@@]21C
35.2

Query (molecule): COC(=O)C[C@H]1[C@]2(C)C3=C(C)[C@H](c4ccoc4)C[C@H]3O[C@@H]2[C@H](OC(C)=O)[C@@H]2[C@]1(C)C(=O)C=C[C@@]2(C)C(=O)OC ; field requested: IC50
17.5

Value source: BindingDB's records for doi:10.1074/jbc.M112.341321
